- Tested on: RARb:RXRa (NR concentration 270 nM, RXRa partner concentration 90 nM)
- test summary: PBM binding z-score (relative to random genomic background probes); higher = stronger binding; sequences stand for … in GC…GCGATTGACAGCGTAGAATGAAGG
Listing of entries alongside the reported PBM binding z-score.

# sequence code, PBM binding z-score
measured = [
    ("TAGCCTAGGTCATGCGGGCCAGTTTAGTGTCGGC", 3.45),
    ("ACTAGTTGGCCAGCTGAGGTCACACACAATTCGG", 3.19),
    ("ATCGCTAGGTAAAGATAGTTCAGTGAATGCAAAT", 0.139),
    ("ATCGCTAGGTAAGACTCAGTTCAGTGAAGAACGC", -0.283),
    ("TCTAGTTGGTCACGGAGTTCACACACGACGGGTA", 2.87),
    ("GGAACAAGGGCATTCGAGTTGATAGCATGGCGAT", 2.02),
    ("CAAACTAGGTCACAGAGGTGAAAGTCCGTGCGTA", 4.42),
    ("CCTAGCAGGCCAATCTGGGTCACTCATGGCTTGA", 1.44),
    ("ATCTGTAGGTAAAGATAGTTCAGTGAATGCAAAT", 0.675),
    ("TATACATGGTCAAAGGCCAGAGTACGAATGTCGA", 1.6),
    ("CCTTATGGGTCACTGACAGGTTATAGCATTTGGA", 3.8),
    ("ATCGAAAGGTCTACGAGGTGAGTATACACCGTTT", 1.81),
    ("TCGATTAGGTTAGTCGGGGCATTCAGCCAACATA", 0.705),
    ("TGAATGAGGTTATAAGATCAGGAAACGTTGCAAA", 1.15),
    ("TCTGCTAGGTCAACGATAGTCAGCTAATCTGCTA", 3.99),
    ("GGAACGAGGGCAAAGTTGATAGTATCTGTCGACG", 2.22),
    ("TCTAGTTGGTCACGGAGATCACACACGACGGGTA", 1.57),
    ("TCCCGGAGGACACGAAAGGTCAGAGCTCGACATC", 4.25),
    ("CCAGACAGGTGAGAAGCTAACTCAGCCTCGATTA", 0.227),
    ("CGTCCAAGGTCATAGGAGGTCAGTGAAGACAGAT", 5.4),
    ("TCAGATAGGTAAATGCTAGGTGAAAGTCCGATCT", 0.156),
    ("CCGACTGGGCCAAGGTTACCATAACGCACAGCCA", 0.98),
    ("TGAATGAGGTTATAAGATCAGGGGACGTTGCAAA", 1.43),
    ("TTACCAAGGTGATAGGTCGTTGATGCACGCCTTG", 1.07),
    ("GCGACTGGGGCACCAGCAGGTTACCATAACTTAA", 1.05),
    ("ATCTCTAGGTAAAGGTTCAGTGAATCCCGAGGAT", 1.32),
    ("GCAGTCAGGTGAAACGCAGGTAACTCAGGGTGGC", 1.03),
    ("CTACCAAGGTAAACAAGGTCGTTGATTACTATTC", 0.851),
]

---

- Test system: VDR:RXRa (NR concentration 270 nM, RXRa partner concentration 90 nM)
- test summary: PBM binding z-score (relative to random genomic background probes); higher = stronger binding; sequences stand for … in GC…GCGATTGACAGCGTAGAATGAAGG

# sequence code, experimental target, PBM binding z-score
data = [
    ("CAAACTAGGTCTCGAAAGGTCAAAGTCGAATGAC", "VDR:RXRa (NR concentration 270 nM, RXRa partner concentration 90 nM)", 4.71),
    ("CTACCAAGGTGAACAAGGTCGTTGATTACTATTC", "VDR:RXRa (NR concentration 270 nM, RXRa partner concentration 90 nM)", 5.95),
    ("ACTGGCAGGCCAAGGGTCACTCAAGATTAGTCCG", "VDR:RXRa (NR concentration 270 nM, RXRa partner concentration 90 nM)", 2.69),
    ("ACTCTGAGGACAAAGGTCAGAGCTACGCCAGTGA", "VDR:RXRa (NR concentration 270 nM, RXRa partner concentration 90 nM)", 3.49),
    ("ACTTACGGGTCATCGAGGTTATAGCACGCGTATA", "VDR:RXRa (NR concentration 270 nM, RXRa partner concentration 90 nM)", 7.51),
    ("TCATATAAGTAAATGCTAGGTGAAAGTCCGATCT", "VDR:RXRa (NR concentration 270 nM, RXRa partner concentration 90 nM)", 0.889),
    ("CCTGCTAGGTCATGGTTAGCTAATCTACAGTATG", "VDR:RXRa (NR concentration 270 nM, RXRa partner concentration 90 nM)", 1.39),
    ("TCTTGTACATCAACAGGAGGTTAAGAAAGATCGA", "VDR:RXRa (NR concentration 270 nM, RXRa partner concentration 90 nM)", 0.977),
]

---

- Tested on: PXR:RXRa (NR concentration 270 nM, RXRa partner concentration 90 nM)
- test summary: PBM binding z-score (relative to random genomic background probes); higher = stronger binding; sequences stand for … in GC…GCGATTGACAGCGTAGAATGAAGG
Class boundaries, taken from values of PBM binding z-score, are as follows: class 1: < 0.7; class 2: ≥ 0.7 and < 5; class 3: ≥ 5

# sequence code, experimental target, assigned category
rows = [
    ("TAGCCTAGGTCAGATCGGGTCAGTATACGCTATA", "PXR:RXRa (NR concentration 270 nM, RXRa partner concentration 90 nM)", "class 2"),
    ("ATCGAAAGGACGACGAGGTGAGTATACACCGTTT", "PXR:RXRa (NR concentration 270 nM, RXRa partner concentration 90 nM)", "class 1"),
    ("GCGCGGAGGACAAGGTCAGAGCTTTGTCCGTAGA", "PXR:RXRa (NR concentration 270 nM, RXRa partner concentration 90 nM)", "class 2"),
    ("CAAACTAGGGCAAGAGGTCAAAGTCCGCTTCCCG", "PXR:RXRa (NR concentration 270 nM, RXRa partner concentration 90 nM)", "class 3"),
    ("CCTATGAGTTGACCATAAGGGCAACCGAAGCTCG", "PXR:RXRa (NR concentration 270 nM, RXRa partner concentration 90 nM)", "class 2"),
    ("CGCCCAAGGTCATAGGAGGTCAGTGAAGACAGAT", "PXR:RXRa (NR concentration 270 nM, RXRa partner concentration 90 nM)", "class 3"),
    ("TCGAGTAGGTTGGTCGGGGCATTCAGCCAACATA", "PXR:RXRa (NR concentration 270 nM, RXRa partner concentration 90 nM)", "class 1"),
    ("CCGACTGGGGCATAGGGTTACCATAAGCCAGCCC", "PXR:RXRa (NR concentration 270 nM, RXRa partner concentration 90 nM)", "class 1"),
    ("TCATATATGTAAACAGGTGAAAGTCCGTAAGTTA", "PXR:RXRa (NR concentration 270 nM, RXRa partner concentration 90 nM)", "class 2"),
    ("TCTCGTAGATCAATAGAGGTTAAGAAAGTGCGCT", "PXR:RXRa (NR concentration 270 nM, RXRa partner concentration 90 nM)", "class 2"),
    ("ATATGTAGGTTATCGGGTCATTTAGTTTGCGCAT", "PXR:RXRa (NR concentration 270 nM, RXRa partner concentration 90 nM)", "class 2"),
    ("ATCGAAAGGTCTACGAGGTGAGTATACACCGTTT", "PXR:RXRa (NR concentration 270 nM, RXRa partner concentration 90 nM)", "class 1"),
    ("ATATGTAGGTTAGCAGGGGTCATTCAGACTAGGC", "PXR:RXRa (NR concentration 270 nM, RXRa partner concentration 90 nM)", "class 3"),
    ("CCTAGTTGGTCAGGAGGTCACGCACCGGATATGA", "PXR:RXRa (NR concentration 270 nM, RXRa partner concentration 90 nM)", "class 2"),
    ("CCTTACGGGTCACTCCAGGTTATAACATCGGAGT", "PXR:RXRa (NR concentration 270 nM, RXRa partner concentration 90 nM)", "class 2"),
    ("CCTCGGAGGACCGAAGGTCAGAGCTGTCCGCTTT", "PXR:RXRa (NR concentration 270 nM, RXRa partner concentration 90 nM)", "class 2"),
    ("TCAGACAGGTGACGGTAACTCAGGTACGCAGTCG", "PXR:RXRa (NR concentration 270 nM, RXRa partner concentration 90 nM)", "class 1"),
    ("GCGACTGGGGCAAAGCAGCTTACCATAAGGTTGG", "PXR:RXRa (NR concentration 270 nM, RXRa partner concentration 90 nM)", "class 1"),
    ("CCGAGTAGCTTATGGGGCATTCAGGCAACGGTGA", "PXR:RXRa (NR concentration 270 nM, RXRa partner concentration 90 nM)", "class 1"),
    ("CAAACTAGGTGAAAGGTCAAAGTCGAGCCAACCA", "PXR:RXRa (NR concentration 270 nM, RXRa partner concentration 90 nM)", "class 3"),
    ("ATCTCTAGGTAAAGATAATTCAGTGAATGCAAAT", "PXR:RXRa (NR concentration 270 nM, RXRa partner concentration 90 nM)", "class 1"),
    ("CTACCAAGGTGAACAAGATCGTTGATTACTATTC", "PXR:RXRa (NR concentration 270 nM, RXRa partner concentration 90 nM)", "class 1"),
    ("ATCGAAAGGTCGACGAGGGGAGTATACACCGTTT", "PXR:RXRa (NR concentration 270 nM, RXRa partner concentration 90 nM)", "class 2"),
]

Source of measurements: the supplement of paper PMC6555819
